Target: NMDA receptor glycine site (Rattus norvegicus, UniProt P35439)
Assay: inhibition of [3H]DCKA binding to rat brain membranes
ATTRIBUTE_MEASURED: IC50
The reply must contain the numeric value and, after it, the unit.

Just so you know, measured IC50 for N#Cc1c(=O)[nH]c2cc(Cl)c(Cl)cc2[n+]1[O-] came out at 135 nM
